experiment: Metabolic stability in mouse liver microsomes assessed as parent compound remaining at 1 uM preincubated for 5 mins followed by NADPH addition after 30 mins by LC-MS/MS analysis; assay type: ADME, Microsome; conditions: read-out: Stability
The molecules listed here are annotated with their remaining at 0.5 h, 1 µM.
Provide only the numeric value, understood in %.

> print(dat)
                    structure.smiles.string         property.measured  unit.of.measurement  assay.value
1  O=C(O)c1ccc(-n2cc(C(=O)c3c(Cl)cccc3Cl)c3ccc(F)cc32)cc1  remaining at 0.5 h, 1 µM                    %           80

Exercise: Which measured remaining at 0.5 h, 1 µM value corresponds to O=C(O)c1ccc(-n2cc(C(=O)c3c(Cl)cccc3Cl)c3cccc(Cl)c32)cc1 ?
Solution: 76

Exercise: Form field: reported remaining at 0.5 h, 1 µM of O=C(O)c1ccc(-n2cc(C(=O)c3c(Cl)cccc3Cl)c3cccc(F)c32)cc1
Solution: 78

====

assay: Metabolic stability in rat liver microsomes assessed as parent compound remaining at 1 uM preincubated for 5 mins followed by NADPH addition after 30 mins by LC-MS/MS analysis; format: ADME, Microsome; settings: read-out: Stability
API: label(entry) gives label 1 if the entry's remaining at 0.5 h, 1 µM is strictly smaller than 70%; on equality or larger values it gives label 0.

Completed entries (count: 3):
> print(dat)
                    structure.smiles.string  assigned.class
1  Cc1cccc(Cl)c1C(=O)c1cn(-c2ccc(C(=O)O)cc2F)c2ccccc12         label 1
2  O=C(O)c1ccc(-n2cc(C(=O)c3c(Cl)cccc3Cl)c3cccc(F)c32)c(F)c1         label 0
3  O=C(O)c1ccc(-n2cc(C(=O)c3c(Cl)cccc3C(F)(F)F)c3cccnc32)cc1         label 1

Exercise: Say whether its remaining at 0.5 h, 1 µM is strictly beneath 70%. Entry: O=C(O)c1ccc(-n2cc(C(=O)c3c(Cl)cccc3C(F)(F)F)c3cccnc32)c(F)c1
Solution: label 0

Exercise: Determine whether this compound shows remaining at 0.5 h, 1 µM lower than 70% (ties excluded): O=C(O)c1ccc(-n2cc(C(=O)c3c(F)cccc3Cl)c3ccccc32)cc1
Solution: label 0

Exercise: Given Cc1cccc(Cl)c1C(=O)c1cn(-c2ccc(C(=O)O)cc2)c2ccccc12 , is recorded remaining at 0.5 h, 1 µM strictly lower than 70%?
Solution: label 0

Exercise: Say whether its remaining at 0.5 h, 1 µM is strictly beneath 70%. Entry: O=C(O)c1ccc(-n2cc(C(=O)c3c(Cl)cccc3Cl)c3cccnc32)c(F)c1
Solution: label 0

Exercise: Please check: remaining at 0.5 h, 1 µM for O=C(O)c1ccc(-n2cc(C(=O)c3c(F)cccc3F)c3ccccc32)cc1 , strictly under 70% or not?
Solution: label 0

Exercise: Say whether its remaining at 0.5 h, 1 µM is strictly beneath 70%. Entry: O=C(O)c1ccc(-n2cc(C(=O)c3c(Cl)cccc3Cl)c3cccnc32)cc1
Solution: label 0

====

target: Nuclear receptor ROR-gamma (Homo sapiens, UniProt P51449); experiment: Transactivation of recombinant GAL4-DBD fused RORgammat LBD (unknown origin) expressed in HEK293T cells incubated for 18 to 24 hrs by dual-Glo luciferase assay; type: cell-based
Sequence (P51449 whole entry, the tested form may be a part): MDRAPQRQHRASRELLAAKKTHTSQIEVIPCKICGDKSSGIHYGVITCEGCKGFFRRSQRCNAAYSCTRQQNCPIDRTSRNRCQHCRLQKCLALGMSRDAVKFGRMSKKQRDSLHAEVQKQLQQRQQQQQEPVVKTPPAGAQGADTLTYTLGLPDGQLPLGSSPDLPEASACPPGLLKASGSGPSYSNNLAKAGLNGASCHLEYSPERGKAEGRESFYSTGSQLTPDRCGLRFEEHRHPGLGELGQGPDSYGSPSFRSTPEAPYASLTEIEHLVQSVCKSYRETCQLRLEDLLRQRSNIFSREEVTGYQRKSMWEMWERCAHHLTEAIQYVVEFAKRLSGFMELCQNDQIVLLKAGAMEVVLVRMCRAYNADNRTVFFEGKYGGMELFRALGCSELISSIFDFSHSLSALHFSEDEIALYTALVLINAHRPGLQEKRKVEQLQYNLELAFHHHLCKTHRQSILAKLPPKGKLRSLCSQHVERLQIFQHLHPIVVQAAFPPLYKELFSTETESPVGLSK
Measured log10 of IC50 values are reported for all entries that follow.
Values below are the log10 of the recorded IC50, with nM as the unit.

// below: answered compounds
> print(dat)
                    structure.smiles.string                           subject.of.test  assay.value
1  O=C(O)c1ccc(-n2cc(C(=O)c3c(Cl)cccc3Cl)c3cccnc32)c(F)c1  Nuclear receptor ROR-gamma (Homo sapiens, UniProt P51449)         1.51
2  O=C(O)c1ccc(-n2cc(C(=O)c3c(Cl)cccc3Cl)c3ccccc32)cc1O  Nuclear receptor ROR-gamma (Homo sapiens, UniProt P51449)         0.70

Exercise: Missing value: log10 of IC50, Nuclear receptor ROR-gamma (Homo sapiens, UniProt P51449), entry O=C(O)c1ccc(-n2cc(C(=O)c3c(F)cccc3Cl)c3ccccc32)cc1 . Fill in?
Solution: 2.30

Reference for the values: ChEMBL document CHEMBL4346735
